SYSTEM: acetylcholinesterase (AChE)
Construct: AChE used with commercial BioVision colorimetric AChE assay kit
PROCEDURE_DETAILS: colorimetric AChE kit (choline oxidase/probe), […] nm
Format: biochemical
RUN_CONDITIONS: 37°C, 20 min; AChE substrate 5 mM; also printed as 10.42 μg/ml
READOUT_LABEL: IC50

Please give measured IC50 of the following entry: O=C(O)c1ccc(O)c(O)c1 [Protocatechuic acid] 67.6 µM
